STUDY SYSTEM: Thermothelomyces thermophilus SAM complex (sorting and assembly machinery complex; Sam50:Sam35:Sam37, monomer) (Thermothelomyces thermophilus)
Sequence (chain, as listed by the source, chain 1 of 3): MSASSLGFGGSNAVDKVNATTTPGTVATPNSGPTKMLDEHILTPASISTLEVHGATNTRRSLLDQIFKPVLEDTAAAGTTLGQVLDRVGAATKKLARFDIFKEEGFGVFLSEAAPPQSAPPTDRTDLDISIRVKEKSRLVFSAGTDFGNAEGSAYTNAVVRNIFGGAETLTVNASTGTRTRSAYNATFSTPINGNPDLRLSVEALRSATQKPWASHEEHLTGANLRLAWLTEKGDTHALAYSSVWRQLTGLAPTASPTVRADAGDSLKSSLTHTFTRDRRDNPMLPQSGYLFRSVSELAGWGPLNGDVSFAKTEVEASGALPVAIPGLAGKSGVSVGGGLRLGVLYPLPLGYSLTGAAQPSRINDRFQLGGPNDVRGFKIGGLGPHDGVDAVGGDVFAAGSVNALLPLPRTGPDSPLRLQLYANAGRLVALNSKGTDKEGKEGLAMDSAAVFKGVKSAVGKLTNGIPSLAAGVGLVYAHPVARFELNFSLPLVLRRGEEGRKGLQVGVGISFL
Sequence (chain, as listed by the source, chain 2 of 3): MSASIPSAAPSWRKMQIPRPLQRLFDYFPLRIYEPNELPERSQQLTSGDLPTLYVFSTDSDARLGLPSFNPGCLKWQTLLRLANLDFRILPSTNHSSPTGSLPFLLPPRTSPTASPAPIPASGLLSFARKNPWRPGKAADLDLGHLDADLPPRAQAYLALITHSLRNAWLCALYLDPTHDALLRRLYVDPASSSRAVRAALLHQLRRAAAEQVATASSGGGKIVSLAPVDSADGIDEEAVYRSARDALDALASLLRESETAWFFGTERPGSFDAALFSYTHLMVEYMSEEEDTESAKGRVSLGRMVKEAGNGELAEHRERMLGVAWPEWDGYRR
Sequence (chain, as listed by the source, chain 3 of 3): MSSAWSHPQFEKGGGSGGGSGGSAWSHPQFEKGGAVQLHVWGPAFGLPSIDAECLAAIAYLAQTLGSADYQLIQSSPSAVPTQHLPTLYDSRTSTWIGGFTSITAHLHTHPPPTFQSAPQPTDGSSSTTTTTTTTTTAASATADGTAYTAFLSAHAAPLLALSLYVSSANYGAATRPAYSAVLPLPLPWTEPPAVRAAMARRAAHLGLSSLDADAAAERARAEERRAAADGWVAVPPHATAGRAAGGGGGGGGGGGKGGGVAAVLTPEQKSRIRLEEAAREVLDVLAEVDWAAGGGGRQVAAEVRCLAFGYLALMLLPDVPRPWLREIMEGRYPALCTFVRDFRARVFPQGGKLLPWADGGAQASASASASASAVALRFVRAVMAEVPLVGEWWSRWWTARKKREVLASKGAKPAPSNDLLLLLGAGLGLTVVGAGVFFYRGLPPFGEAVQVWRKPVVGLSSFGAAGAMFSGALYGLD
METHOD NOTES: MST; replicate 6; detergent
Ends that are not written are not given here.
ENDPOINT NAME: Kd (nM)
Give bare numbers, in nM.

May I ask what Kd has been recorded for WNWSKSF (also: backbone cyclizations, places not given here) [darobactin A] ? 166
